Assay: Tissue distribution 24 hours after I.V. administration to rats bearing the Walker-256 carcinosarcoma (Tables 5 and 6)
Assay type: in vivo, Sprague-Dawley rats
Settings: rat, iv, tumor-bearing rats, read-out: Distribution of radioactivity: tumor
Give tissue uptake at 24 h for every item shown.
Return type: number; implicit unit %ID/g.

Give me measured tissue uptake at 24 h, please, for this compound: C[N+](C)(C)CCOP(=O)([O-])OCCCOCCCCCCCCCCCCc1cccc([125I])c1 [ET-12IP-H]
0.463

Give me measured tissue uptake at 24 h, please, for this compound: COC(COCCCCCCCCCCCCc1cccc([125I])c1)COP(=O)([O-])OCC[N+](C)(C)C (racemic) [ET-12IP-OMe]
1.11

Hey, just so you know, these numbers are from patent US5795561A.
